From: ChEMBL document CHEMBL4806962

assayed.target: Probable G-protein coupled receptor 174 (Homo sapiens, UniProt Q9BXC1)
Sequence (Q9BXC1 whole entry): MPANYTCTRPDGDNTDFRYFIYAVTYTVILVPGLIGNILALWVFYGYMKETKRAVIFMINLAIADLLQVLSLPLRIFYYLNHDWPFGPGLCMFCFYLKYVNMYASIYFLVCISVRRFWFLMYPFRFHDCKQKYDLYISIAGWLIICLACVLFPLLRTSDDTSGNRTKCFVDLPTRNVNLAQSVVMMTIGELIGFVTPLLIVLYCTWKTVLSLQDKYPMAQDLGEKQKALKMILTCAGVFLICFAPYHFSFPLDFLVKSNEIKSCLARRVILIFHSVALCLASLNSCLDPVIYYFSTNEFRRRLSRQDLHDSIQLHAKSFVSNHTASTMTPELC
assay.remarks: Inverse agonist activity at human GPR174 assessed as fold decrease in Gs signalling activity by CRA
Format: functional
run.parameters: filed as inverse agonist
endpoint.name: fold change (FC)
Returns: the value as a bare number; no unit string appended.

Sample answers from the record:
[[record]]
compound = "O=C1CCCC2=C1C(c1ccc(OC3CCCC3)cc1)C1=C(N2)c2ccccc2C1=O (stereo not drawn)"
numeric_value = 1

[[record]]
compound = "CCCOc1ccc(C2C3=C(CCCC3=O)NC3=C2C(=O)c2ccccc23)cc1 (stereo not drawn)"
numeric_value = 1


Moving on to the next compound.
Request: fold change (FC) lookup needed for CC(=O)N1CCN(c2cc(N3CCCCC3)c(F)cc2[N+](=O)[O-])CC1 , thanks.
Result: 0.3

---

Each record here notes measured fold change (FC).
assayed.target: Probable G-protein coupled receptor 174 (Homo sapiens)
assay.remarks: Inverse agonist activity at human GPR174 assessed as fold decrease in Gs signalling activity by CRA
Assay type: functional
run.parameters: filed as inverse agonist
Returns: the value as a bare number; no unit string appended.

[[record]]
compound = "CCOc1ccc(C2C3=C(CCCC3=O)NC3=C2C(=O)c2ccccc23)cc1 (stereo not given)"
numeric_value = 0.4


Request: fold change (FC) lookup needed for CCc1ccc(C2C3=C(CCCC3=O)NC3=C2C(=O)c2ccccc23)cc1 (stereo not given) , thanks.
Result: 0.5

Request: Let us now turn to CCOC(=O)N1CCN(c2cc(N3CCCCC3C)c(F)cc2[N+](=O)[O-])CC1 (stereo not given)
Result: 1

Request: Let us now turn to CC1CCN(c2cc(N3CCN(S(=O)(=O)c4ccccc4)CC3)c([N+](=O)[O-])cc2F)CC1
Result: 0.2

Request: Let us now turn to CCOc1cccc(C2C3=C(CCCC3=O)NC3=C2C(=O)c2ccccc23)c1 (stereo not given)
Result: 1.6
